experiment: inhibitors of GR-EGFP nuclear translocation, primary screen, dynein cargo transport inhibitor project, imaging, high-content, 3617.4 mouse cells (AID 1381); details: measured here: cell count per field, at 20 µM, stimulated with dexamethasone, 1 µM
In all, about 220,000 compounds went through this assay and about 1,000 (0.45%) were called active. This is one part of a sample in which actives are shown more often than they occur.
Answer Condition not met if z-score is under -0.5, and Condition met if it is -0.5 or more.

Task: Determine whether this compound has z-score no lower than -0.5: `NS(=O)(=O)c1ccc(CCNC(=O)NC2CCCCC2)cc1`
Result: Condition met

Task: Determine whether this compound has z-score no lower than -0.5: `O=C(NCCCN1CCOCC1)c1ccc([N+](=O)[O-])cc1[N+](=O)[O-]`
Result: Condition met
